# SYSTEM TESTED: Pyroglutamylated RF-amide peptide receptor (Homo sapiens, UniProt Q96P65)
# Sequence (Q96P65 whole entry): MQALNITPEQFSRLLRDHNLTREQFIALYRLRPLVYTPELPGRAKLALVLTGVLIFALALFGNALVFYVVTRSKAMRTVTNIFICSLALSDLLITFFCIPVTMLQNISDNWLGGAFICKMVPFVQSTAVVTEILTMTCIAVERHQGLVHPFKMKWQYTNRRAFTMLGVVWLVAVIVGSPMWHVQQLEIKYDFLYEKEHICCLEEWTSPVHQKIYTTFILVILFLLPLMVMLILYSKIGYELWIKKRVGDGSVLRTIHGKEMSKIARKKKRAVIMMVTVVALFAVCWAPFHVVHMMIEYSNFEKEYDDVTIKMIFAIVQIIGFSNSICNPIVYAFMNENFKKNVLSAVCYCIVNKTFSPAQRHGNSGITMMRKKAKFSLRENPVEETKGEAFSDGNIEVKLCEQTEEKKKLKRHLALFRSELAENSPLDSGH
# ASSAY NAME: Displacement of [125I]QRFP43 from human GPR103 receptor expressed in HEK cells after 90 mins incubation by scintillation counting
# Type: cell-based, HEK293
METRIC NAME: pIC50
On this scale, pIC50 is minus log10 of a concentration expressed in M (mol/L).

Query: Requested field: pIC50. Item: `CN(C)Cc1ccc2c(c1)CCN(C(=O)c1cc3cc(Br)ncc3n1C)C2`
Result: 6.55

Query: Record: `CN(C)Cc1ccc2c(c1)CCN(C(=O)c1cc3cc(Cl)ccc3n1C)C2`
Result: 7.15

This collection of values is drawn from ChEMBL document CHEMBL3352699.
